test: NCI Yeast Anticancer Drug Screen. Data for the sgs1 mgt1 strain (AID 161);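 note: 0% = growth of cultures given vehicle only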; conditions: S. cerevisiae sgs1 mgt1 strain, at 50.0 µM, hits give high values
About 79,000 compounds went through this panel and 15% of them were active in at least one assay; those are over-represented in the sample as a whole.
measured_parameter: growth inhibition (%)

INSERT INTO results (molecule, result_number) VALUES
  ('CC(C)=C=CP(=O)(O)c1ccccc1', -15.7),
  ('O=C(O)C(F)(F)C(F)(Cl)C(F)(F)C(F)(Cl)C(F)(F)Cl (stereo not drawn) (tested in a mixture with another compound)', -12.7),
  ('CC(=O)Nc1nn[nH]n1', 2.1),
  ('CCOC(=O)C1C(=O)NC2CCC(=O)CC21c1ccc2c(c1)OCO2 (stereo not drawn)', -1.8),
  ('Nc1cc(S(=O)(=O)F)cc(Cl)c1O', 14.9),
  ('O.O.[Cl][Pt+2][Cl].[NH-]CC[NH-]', -2.15),
  ('[Cl][Hg][c]1ccccc1N=Nc1ccccc1', 94.4),
  ('N#CCc1ccc(O)cc1', -20.8);
